Measured Ki of individual entries
- assay_target: plasma kallikrein (Homo sapiens (Human))
- Sequence (P03952 391-638): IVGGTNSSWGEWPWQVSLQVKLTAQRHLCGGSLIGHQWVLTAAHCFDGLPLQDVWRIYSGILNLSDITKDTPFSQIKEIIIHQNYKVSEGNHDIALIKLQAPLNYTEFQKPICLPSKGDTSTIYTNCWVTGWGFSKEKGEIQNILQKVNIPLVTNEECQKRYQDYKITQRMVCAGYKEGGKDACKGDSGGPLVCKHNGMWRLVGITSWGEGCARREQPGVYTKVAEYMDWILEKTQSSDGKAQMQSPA
- Sequence (P03952 20-390 partner): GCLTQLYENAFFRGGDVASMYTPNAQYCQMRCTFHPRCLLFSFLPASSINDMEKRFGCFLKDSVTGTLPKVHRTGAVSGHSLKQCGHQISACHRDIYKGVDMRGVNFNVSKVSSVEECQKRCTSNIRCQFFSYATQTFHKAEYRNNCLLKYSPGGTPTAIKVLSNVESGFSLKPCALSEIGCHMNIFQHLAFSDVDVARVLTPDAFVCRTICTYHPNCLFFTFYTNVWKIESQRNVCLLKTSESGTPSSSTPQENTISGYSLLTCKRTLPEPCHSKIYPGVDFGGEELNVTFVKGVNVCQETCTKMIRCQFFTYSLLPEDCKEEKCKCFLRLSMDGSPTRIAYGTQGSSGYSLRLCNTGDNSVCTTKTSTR
- experiment_description: Determination of inhibition constants for human plasma kallikrein (chromogenic substrate)
- assay_conditions: 25° C., S2302 substrate; read-out: h PK Ki
I only need the number, in nM, no unit after it.

molecule	assay_target	Ki (nM)
N=C(N)c1ccc(CNC(=O)[C@H](CCC2CCNCC2)NC(=O)[C@@H](CCCc2cc[n+]([O-])cc2)NS(=O)(=O)Cc2ccccc2)cc1 [drawing 123]	plasma kallikrein (Homo sapiens (Human))	4
N=C(N)c1ccc(CNC(=O)[C@H](CCC2CCNCC2)NC(=O)[C@@H](CCc2cc[n+]([O-])cc2)NS(=O)(=O)Cc2ccccc2)cc1	plasma kallikrein (Homo sapiens (Human))	20
N=C(N)c1ccc(CNC(=O)[C@H](CCC2CCNCC2)NC(=O)[C@@H](CCCC2CCNCC2)NS(=O)(=O)Cc2ccccc2)cc1	plasma kallikrein (Homo sapiens (Human))	7.5
N=C(N)c1ccc(CNC(=O)[C@H](CCC2CCNCC2)NC(=O)[C@@H](CCc2ccncc2)NS(=O)(=O)Cc2ccccc2)cc1	plasma kallikrein (Homo sapiens (Human))	9
CNC(=O)N1CCC(CC[C@@H](NS(=O)(=O)Cc2ccccc2)C(=O)N[C@@H](CCC2CCNCC2)C(=O)NCc2ccc(C(=N)N)cc2)CC1	plasma kallikrein (Homo sapiens (Human))	2
CN(C)C(=O)N1CCC(CC[C@@H](NS(=O)(=O)Cc2ccccc2)C(=O)N[C@@H](CCC2CCNCC2)C(=O)NCc2ccc(C(=N)N)cc2)CC1	plasma kallikrein (Homo sapiens (Human))	4

Suppose we examine the molecule "CC(C)C(=O)N1CCC(CC[C@@H](NS(=O)(=O)Cc2ccccc2)C(=O)N[C@@H](CCC2CCNCC2)C(=O)NCc2ccc(C(=N)N)cc2)CC1" ; what Ki value has been reported?
1.5

Moving on to the next molecule: "COC(=O)N1CCC(CCC[C@@H](NS(=O)(=O)Cc2ccccc2)C(=O)N[C@@H](CCC2CCNCC2)C(=O)NCc2ccc(C(=N)N)cc2)CC1"
1.5

// same read-out, input: "N=C(N)c1ccc(CNC(=O)[C@H](CCC2CCNCC2)NC(=O)[C@@H](CCCc2ccccc2)NS(=O)(=O)Cc2cccc(C(=O)O)c2)cc1"
3

Request: "N=C(N)c1ccc(CNC(=O)[C@H](CCC2CCNCC2)NC(=O)[C@@H](CCCn2cnnn2)NS(=O)(=O)Cc2ccccc2)cc1"
5.3

Same for "COC(=O)N1CCC(CC[C@@H](NS(=O)(=O)Cc2ccccc2)C(=O)N[C@@H](CCC2CCNCC2)C(=O)NCc2ccc(C(=N)N)cc2)CC1"
2

Query "CCCC(=O)N1CCC(CC[C@@H](NS(=O)(=O)Cc2ccccc2)C(=O)N[C@@H](CCC2CCNCC2)C(=O)NCc2ccc(C(=N)N)cc2)CC1" next
2

Input "COC(=O)c1cccc(CS(=O)(=O)N[C@H](CCCc2ccccc2)C(=O)N[C@@H](CCC2CCNCC2)C(=O)NCc2ccc(C(=N)N)cc2)c1"
9.4

// query: "N=C(N)c1ccc(CNC(=O)[C@H](CCC2CCNCC2)NC(=O)[C@@H](CCCc2ccncc2)NS(=O)(=O)Cc2ccccc2)cc1"
2.7

Consider next the molecule N=C(N)c1ccc(CNC(=O)[C@H](CCC2CCNCC2)NC(=O)[C@@H](CCCc2cc[n+]([O-])cc2)NS(=O)(=O)Cc2ccccc2)cc1 [drawing 117] in the same way.
4

"CCC(=O)N1CCC(CC[C@@H](NS(=O)(=O)Cc2ccccc2)C(=O)N[C@@H](CCC2CCNCC2)C(=O)NCc2ccc(C(=N)N)cc2)CC1" ?
0.9

How about this molecule: "N=C(N)c1ccc(CNC(=O)[C@H](CCC2CCNCC2)NC(=O)[C@@H](CCC2CCN(C(=O)C3CC3)CC2)NS(=O)(=O)Cc2ccccc2)cc1"
0.3

What do we get for "N=C(N)c1ccc(CNC(=O)[C@H](CCC2CCNCC2)NC(=O)[C@@H](CCCc2ccccc2)NS(=O)(=O)Cc2ccccc2)cc1" ?
1.5

Query "N=C(N)c1ccc(CNC(=O)[C@H](CCC2CCNCC2)NC(=O)[C@H](NS(=O)(=O)Cc2ccccc2)c2ccccc2)cc1" next
20

Okay, and "CC(=O)N1CCC(CC[C@@H](NS(=O)(=O)Cc2ccccc2)C(=O)N[C@@H](CCC2CCNCC2)C(=O)NCc2ccc(C(=N)N)cc2)CC1" ?
5

And then "CC(=O)N1CCC(CCC[C@@H](NS(=O)(=O)Cc2ccccc2)C(=O)N[C@@H](CCC2CCNCC2)C(=O)NCc2ccc(C(=N)N)cc2)CC1" , what is it?
2

Now give it for "N=C(N)c1ccc(CNC(=O)[C@H](CCC2CCNCC2)NC(=O)[C@@H](CCC2CCNCC2)NS(=O)(=O)Cc2ccccc2)cc1" too.
7.5

Then what about the molecule "COCC(=O)N1CCC(CC[C@@H](NS(=O)(=O)Cc2ccccc2)C(=O)N[C@@H](CCC2CCNCC2)C(=O)NCc2ccc(C(=N)N)cc2)CC1" ?
1.3

---

- assay_target: plasmin (Homo sapiens (Human))
- Sequence (P00747 581-810): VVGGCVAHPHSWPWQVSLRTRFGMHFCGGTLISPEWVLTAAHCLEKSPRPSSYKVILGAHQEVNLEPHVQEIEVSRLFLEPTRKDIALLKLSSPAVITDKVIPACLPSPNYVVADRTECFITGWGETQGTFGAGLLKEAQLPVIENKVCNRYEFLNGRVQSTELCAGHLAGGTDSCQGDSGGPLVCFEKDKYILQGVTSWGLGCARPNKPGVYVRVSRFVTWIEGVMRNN
- Sequence (P00747 97-580 partner): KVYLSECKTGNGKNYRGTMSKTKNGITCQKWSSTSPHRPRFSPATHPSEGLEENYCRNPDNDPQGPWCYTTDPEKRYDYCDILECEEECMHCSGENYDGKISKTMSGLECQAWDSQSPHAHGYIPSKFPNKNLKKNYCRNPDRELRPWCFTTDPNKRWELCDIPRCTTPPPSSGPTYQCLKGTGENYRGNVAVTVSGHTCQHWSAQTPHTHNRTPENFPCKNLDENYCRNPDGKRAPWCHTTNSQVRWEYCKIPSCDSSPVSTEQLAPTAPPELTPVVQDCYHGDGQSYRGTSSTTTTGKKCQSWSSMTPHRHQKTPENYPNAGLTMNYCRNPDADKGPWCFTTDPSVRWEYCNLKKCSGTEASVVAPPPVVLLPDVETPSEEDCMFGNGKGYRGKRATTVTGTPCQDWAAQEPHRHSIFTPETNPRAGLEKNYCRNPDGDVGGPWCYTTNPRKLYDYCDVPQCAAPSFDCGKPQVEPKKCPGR
- experiment_description: Determination of inhibition constants for human plasmin (chromogenic substrate)
- Assay type: biochemical
- assay_conditions: 25° C., Chromozym PL substrate; read-out: h plasmin Ki
- Procedure: Determination of the Inhibition Constants for Human Plasmin (h Plasmin) and Human Plasma Kallikrein (h PK) The inhibitory effect for the individual enzymes was determined in analogy to a previously disclosed method (Stürzebecher et al., J. Med. Chem., 40, 3091-3099 (1997)). […] For zero order kinetics, the reaction was stopped after 20 min by adding 15 μl of acetic acid (80% v/v), and the absorption at 405 nm was determined using a Microplate Reader (Multiscan Ascent™, from Thermo). […]
Recorded pKi, one value per entry.
pKi here is simply -log10 of the concentration when that concentration is written in mol/L.

Illustrative cases are given below, each with its answer.
input_smiles	pKi
COC(=O)c1cccc(CS(=O)(=O)N[C@H](CCCc2ccccc2)C(=O)N[C@@H](CCC2CCNCC2)C(=O)NCc2ccc(C(=N)N)cc2)c1	8.57
N=C(N)c1ccc(CNC(=O)[C@H](CCC2CCNCC2)NC(=O)[C@@H](CCC2CCNCC2)NS(=O)(=O)Cc2ccccc2)cc1	8.52
N=C(N)c1ccc(CNC(=O)[C@H](CCC2CCNCC2)NC(=O)[C@@H](CCCn2cnnn2)NS(=O)(=O)Cc2ccccc2)cc1	8.10

Param item = "N=C(N)c1ccc(CNC(=O)[C@H](CCC2CCNCC2)NC(=O)[C@@H](CCc2cc[n+]([O-])cc2)NS(=O)(=O)Cc2ccccc2)cc1" ; retrieve measured pKi.
8.30

---

- assay_target: human activated C1s complement component (Homo sapiens (Human), UniProt P09871)
- Sequence (P09871 438-688): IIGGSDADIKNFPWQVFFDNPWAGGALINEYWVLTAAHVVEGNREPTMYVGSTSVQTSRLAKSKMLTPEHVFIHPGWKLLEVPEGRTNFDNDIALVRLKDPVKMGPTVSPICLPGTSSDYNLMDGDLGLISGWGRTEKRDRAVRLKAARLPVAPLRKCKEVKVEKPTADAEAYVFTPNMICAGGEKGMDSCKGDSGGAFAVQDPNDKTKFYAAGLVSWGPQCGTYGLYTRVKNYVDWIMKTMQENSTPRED
- Sequence (P09871 16-437 partner): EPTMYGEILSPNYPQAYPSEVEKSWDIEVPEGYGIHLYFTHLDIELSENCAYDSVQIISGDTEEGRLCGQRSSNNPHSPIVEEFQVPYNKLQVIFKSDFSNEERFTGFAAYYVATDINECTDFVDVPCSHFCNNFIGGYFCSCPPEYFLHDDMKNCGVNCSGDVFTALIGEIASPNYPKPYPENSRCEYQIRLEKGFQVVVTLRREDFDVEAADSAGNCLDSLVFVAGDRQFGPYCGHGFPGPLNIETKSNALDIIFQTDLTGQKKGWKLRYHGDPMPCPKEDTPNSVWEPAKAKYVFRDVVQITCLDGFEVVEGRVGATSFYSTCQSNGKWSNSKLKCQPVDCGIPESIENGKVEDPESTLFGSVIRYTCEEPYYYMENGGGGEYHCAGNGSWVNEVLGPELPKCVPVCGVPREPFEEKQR
- experiment_description: Inhibition of human C1s
- assay_conditions: S2314 substrate; read-out: h C1s Ki
- Description: The inhibitory effect for the individual enzymes was determined in analogy to a previously disclosed method (Stürzebecher et al., J. Med. Chem., 40, 3091-3099 (1997)). 200 μl of TBS (0.05 M trishydroxymethylaminomethane; 0.154 M NaCl, 2% ethanol, pH 8.0) […] For zero order kinetics, the reaction was stopped after 20 min by adding 15 μl of acetic acid (80% v/v), and the absorption at 405 nm was determined using a Microplate Reader (Multiscan Ascent™, from Thermo). […]
value_kind: pKi
The quantity pKi is defined as the negative base-10 logarithm of the molar concentration.

Past entries and their recorded results:
compound	pKi
CC(=O)N1CCC(CCC[C@@H](NS(=O)(=O)Cc2ccccc2)C(=O)N[C@@H](CCC2CCNCC2)C(=O)NCc2ccc(C(=N)N)cc2)CC1	5.05
N=C(N)c1ccc(CNC(=O)[C@H](CCC2CCNCC2)NC(=O)[C@@H](CCCc2cc[n+]([O-])cc2)NS(=O)(=O)Cc2ccccc2)cc1 [drawing 123]	5.02

Field request: pKi | item: "COC(=O)c1cccc(CS(=O)(=O)N[C@H](CCCc2ccccc2)C(=O)N[C@@H](CCC2CCNCC2)C(=O)NCc2ccc(C(=N)N)cc2)c1"
5.32

---

Please consider the recorded pKi for human alpha-thrombin (Homo sapiens (Human)) in what follows.
Keep it numeric: pKi is minus log10 of the concentration in mol/L.

Recorded pKi, per entry:
input_smiles	pKi
N=C(N)c1ccc(CNC(=O)[C@H](CCC2CCNCC2)NC(=O)[C@@H](CCc2ccncc2)NS(=O)(=O)Cc2ccccc2)cc1	5.41
N=C(N)c1ccc(CNC(=O)[C@H](CCC2CCNCC2)NC(=O)[C@@H](CCC2CCN(C(=O)C3CC3)CC2)NS(=O)(=O)Cc2ccccc2)cc1	5.07

Now for the compound whose pKi we want.
Dear colleague, I am looking for the recorded pKi of the following compound: "CC(=O)N1CCC(CCC[C@@H](NS(=O)(=O)Cc2ccccc2)C(=O)N[C@@H](CCC2CCNCC2)C(=O)NCc2ccc(C(=N)N)cc2)CC1"
5.42
